// provenance: patent US11236094B2

The following compounds each carry a recorded pIC50 for human FGFR4 (Homo sapiens).
In simple prose, pIC50 is minus the logarithm base ten of a concentration in moles per litre.

- Compound: "C=CC(=O)N1CCC(c2cc(-c3cc4cc(C)cc(OC)c4s3)c3c(N)ncnn23)C1 (stereo not shown)"
  Measurement Target: "human FGFR4 (Homo sapiens)"
  pIC50: 9.05
- Compound: "C=CC(=O)N1CC[C@H](c2cc(-c3cc4cccc(OC)c4o3)c3c(N)ncnn23)C1"
  Measurement Target: "human FGFR4 (Homo sapiens)"
  pIC50: 6.32
- Compound: "CCC(=O)N1CC[C@@H](c2cc(-c3cc4c(F)c(OC)cc(OC)c4s3)c3c(N)ncnn23)C1"
  Measurement Target: "human FGFR4 (Homo sapiens)"
  pIC50: 7.40

Find the measured pIC50: item C=CC(=O)N1CCC(c2cc(-c3sc4c(OC)cc(C)cc4c3C)c3c(N)ncnn23)C1 (single isomer, unassigned) , target or system human FGFR4 (Homo sapiens). 8.07

====

- Measurement Target: human FGFR1 (Homo sapiens, UniProt P11362)
- Sequence (P11362 22-822): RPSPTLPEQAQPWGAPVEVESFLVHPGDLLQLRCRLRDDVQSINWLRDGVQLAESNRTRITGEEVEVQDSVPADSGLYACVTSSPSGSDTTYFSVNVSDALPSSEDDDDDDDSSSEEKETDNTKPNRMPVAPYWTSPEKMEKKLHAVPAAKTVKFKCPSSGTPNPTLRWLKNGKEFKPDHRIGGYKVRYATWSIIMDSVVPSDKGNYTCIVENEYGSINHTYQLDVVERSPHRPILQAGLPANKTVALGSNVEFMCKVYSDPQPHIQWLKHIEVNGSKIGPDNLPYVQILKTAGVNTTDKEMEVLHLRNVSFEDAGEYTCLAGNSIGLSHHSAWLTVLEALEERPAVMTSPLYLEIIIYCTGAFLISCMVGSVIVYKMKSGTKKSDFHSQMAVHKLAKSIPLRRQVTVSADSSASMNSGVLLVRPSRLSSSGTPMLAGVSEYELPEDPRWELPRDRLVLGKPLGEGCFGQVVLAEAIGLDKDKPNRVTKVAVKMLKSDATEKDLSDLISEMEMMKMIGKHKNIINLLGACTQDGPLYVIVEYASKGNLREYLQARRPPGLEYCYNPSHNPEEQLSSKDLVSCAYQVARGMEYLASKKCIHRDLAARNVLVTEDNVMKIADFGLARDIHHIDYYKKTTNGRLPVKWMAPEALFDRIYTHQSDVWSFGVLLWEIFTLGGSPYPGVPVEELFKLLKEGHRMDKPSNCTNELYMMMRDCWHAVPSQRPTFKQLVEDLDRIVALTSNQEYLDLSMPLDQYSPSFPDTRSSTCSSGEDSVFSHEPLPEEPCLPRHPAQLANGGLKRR
- Method Notes: 33P isotope-labeled kinase activity test, wild-type FGFR1
- Conditions Used: read-out: IC50 FGFR1; wild-type kinase, 33P-ATP 5 μM, 120 minutes
Measured Endpoint: pIC50
For clarity, pIC50 is expressed as the negative log10 of concentration in mol/L.

# pIC50 lookup, item C=CC(=O)N1CCC(c2c(COC)c(-c3cc4cc(C)cc(OC)c4s3)c3c(N)ncnn23)C1 (single isomer, unassigned) 10.00

====

- Measurement Target: human FGFR1 (Homo sapiens, UniProt P11362)
- Method Notes: 33P isotope-labeled kinase activity test, wild-type FGFR1
- Conditions Used: IC50 FGFR1, wild-type kinase, 33P-ATP 5 μM, 120 minutes
Measured Endpoint: IC50 (nM)
Supply the numeric figure in nM, leaving out any unit text.

- Molecule: "C=CC(=O)N1CC[C@H](c2cc(-c3cc4cccc(OC)c4s3)c3c(N)ncnn23)C1 [Example 33]"
  IC50 / nM: 0.5

May I ask what IC50 has been recorded for COc1cc(C)cc2cc(-c3cc([C@@H]4CCN(C(=O)/C=C/CN5CCOCC5)C4)n4ncnc(N)c34)sc12 [Example 31] ? 1.1

Consider the molecule COc1cc(OC)c2sc(-c3cc([C@H]4CCN(C(=O)/C=C/CN(C)C)C4)n4ncnc(N)c34)cc2c1F [Example 30] and give its measured IC50. 1.6

For the molecule CC#CC(=O)N1CC[C@@H](c2cc(-c3cc4cc(C)cc(OC)c4s3)c3c(N)ncnn23)C1 [Example 10] , what IC50 is on record? 0.2

Endpoint output: IC50 of CCC(=O)N1CC[C@H](c2cc(-c3cc4cc(C)cc(OC)c4s3)c3c(N)ncnn23)C1 [Example 27] . Value? 4.7

For the molecule shown here, C=CC(=O)N1CC[C@H](c2cc(-c3cc4cccc(OC)c4o3)c3c(N)ncnn23)C1 [Example 25] , give the reported IC50. 250

Looking for the measured IC50 of C=CC(=O)N1CCC(O)(c2cc(-c3cc4cc(C)cc(OC)c4s3)c3c(N)ncnn23)C1 (stereo not shown) [Example 14] , can you help? 0.8
